Tested on: DNA
Assay explanation: Induction of DNA cleavage in Escherichia coli ER2272 pUC19 plasmid DNA assessed as decrease in supercoiled DNA at 0.1 to 50 uM in presence of Fe2+ at 10 uM after 60 mins by ethidium bromide staining based densitometric method relative to control
Type: nucleic-acid assay
Measurement context: dose 0.1-50 µM
Calls of active or inactive are those of the source. The calls are words filed in the database; no cut-off is given here.
Recorded metric: Activity

In [3]: df
Out[3]:
                           structure_smiles  target_system  measured_value
0  c1ccc(CN(Cc2ccccn2)[C@H]2CCCC[C@@H]2NCc2cccc3cc4cccc(CN[C@H]5CCCC[C@@H]5N(Cc5ccccn5)Cc5ccccn5)c4cc23)nc1            DNA          Active
1   N[C@@H]1CCCC[C@H]1N(Cc1ccccn1)Cc1ccccn1            DNA            100%
2  c1ccc(CN(Cc2ccccn2)[C@@H]2CCCC[C@H]2NCc2cccc3cc4cccc(CN[C@@H]5CCCC[C@H]5N(Cc5ccccn5)Cc5ccccn5)c4cc23)nc1            DNA          Active
3   N[C@H]1CCCC[C@@H]1N(Cc1ccccn1)Cc1ccccn1            DNA            100%
